All values here come from the Human Domainome abundance scans (Beltran et al. 2025).

B1: Gamma-crystallin D, residues 90 to 170; numbered along this chain, P07320 (parent)
chain: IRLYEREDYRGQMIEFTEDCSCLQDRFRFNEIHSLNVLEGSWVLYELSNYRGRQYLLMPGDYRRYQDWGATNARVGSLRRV

Variants of: B1
Test Protocol: abundance fitness (aPCA) (normalised: wild type 0, dead -1); higher = more abundant; growth selection in yeast, the domain comes from the species named
Measurement Context: Homo sapiens
Quick reference for abundance fitness among some variants
Lab note: record just the number, no unit beside it.

- Changes: "R26V"
  abundance fitness: -0.006
- Changes: "Q12N"
  abundance fitness: 0.102
- Changes: "L57F"
  abundance fitness: -0.194
- Changes: "Q24W"
  abundance fitness: -0.073
- Changes: "F29I"
  abundance fitness: -0.112

In: Recorded abundance fitness for `Y45V` , please?
Out: -0.88

In: Field request: abundance fitness | item: `S34G`
Out: -0.099

In: # get_value(readout='abundance fitness', item= `C22V` )
Out: -0.08

In: So what's the measured abundance fitness for this one? `D8C`
Out: 0.05

In: Item under review: `M13L` . Reported abundance fitness?
Out: 0.002

In: Need abundance fitness, item `L57E`
Out: -0.91
